Test: Toxicity liver stage against HepG2, at 10uM
Format: cell-based
Set-up: test concentration 10 uM, cell line HepG2-A16-CD81EGFP
Settings: human, HepG2-A16-CD81EGFP cells; read-out: INHIBITION
Measure Name: cytotoxicity at 10 µM
The reply must contain the numeric value and, after it, the unit.

GET /values?readout=cytotoxicity at 10 µM&item= CN(C(=O)c1ccco1)C1CCC(NC(=O)OC(C)(C)C)CC1 (stereo unspecified) 8.12%

Queued: CN1C(=O)[C@@H]2CC[C@H]1CN(C(=O)c1csc(Cc3ccccc3)n1)C2 3.75%

Thanks! And Cc1nc(C)n(C2CCCN(C(=O)c3ccn(C(C)C)n3)C2)n1 (stereo unspecified) ? -22.6%

// next record O=C(NC1CCCC1)NC1CCC(C(=O)N2CCSCC2)CC1 (stereo unspecified) 3.58%

Cool, now Cc1cc(CN2CCN(C(=O)NCc3ccoc3)CC2)no1 -22.5%

Consider next the molecule O=C(CC1CC1)NCc1cn2c(n1)CN(CC1CC1)CC2 in the same way. 4.17%

====

Assay: Toxicity liver stage against HepG2, at 10uM
Format: cell-based
Design: test concentration 10 uM, cell line HepG2-A16-CD81EGFP
Details: human, HepG2-A16-CD81EGFP cells; read-out: INHIBITION
Measure Name: cytotoxicity at 10 µM (%)
Answer format: numeric, % implied, no suffix.

So what does the record say about cytotoxicity at 10 µM for c1cc(C2CCN(Cc3nc(-c4ccsc4)no3)CC2)[nH]n1 ? 8.44

Then F[C@@H]1CN(Cc2ccccc2)C[C@@H]1OCc1nc2cnccc2[nH]1 ? -0.966

Again, but for COc1cc(C(=O)N2CCC(O)(CN3CCOCC3)C(C)(C)C2)ccn1 (centres undefined) -9.61

Also OC1CCCN(Cc2cn(CC3CCN(C4CCSCC4)CC3)nn2)C1 (centres undefined) , if possible. -61

Another compound to check: CCCS(=O)(=O)N1CCC(NCc2c(C)nn(C)c2OC)CC1 7.01

Now try CSCCC(C)NC(=O)CCN1C(=O)CCc2cc(F)ccc21 (centres undefined) . 6.79

Also need O=S(=O)(c1cccs1)N1CCCn2cnc(CO)c2C1 , thanks. 5.89

Repeat for the following compound: CS(=O)(=O)CCCN1CCSCC1c1ccc(Cl)cc1 (centres undefined) -14.5

Again, but for CNS(=O)(=O)c1cccc(CNc2ccc(C#N)cn2)c1 -4.36

Param item: O=C(Nc1ccc(Cl)cn1)C1CCCN(CCc2ccccn2)C1 (centres undefined) 7.33

// repeat for O=C(c1cc(F)ccc1O)N1CCN(C2CCSC2)CC1 (centres undefined) and report 0.773

Same thing, different compound: CN(CC(=O)NC(C)(C)C)Cc1nc(-c2ccccc2)c[nH]1 -2.23

Same thing, different compound: Cc1ccsc1CN(CCN(C)C)C(=O)C1=NNC(=O)CC1 -13.4

Please give the result for COCC(=O)Nc1ccc(-c2noc([C@@H]3CCCN3C)n2)cn1 too. 6.65

OCc1cc2ccccc2nc1NC1CC=CC1 , same question. -56

Cool, now Cc1ccc(CSc2nc(N)cc(NCCS(=O)(=O)N(C)C)n2)cc1 0.479

Would you mind doing c1ccc(-n2cc(CN3CCCC3Cn3cncn3)nn2)cc1 (centres undefined) as well? -0.0716

Likewise for CNc1ncc(CN(C)Cc2cc(O)c3cc(F)ccc3n2)cn1 ? 1.95

Query O=C(NC1CCC1)C1=NOC2(CCN(Cc3ccc(F)cc3)C2)C1 (centres undefined) next -67.7

// next record CCc1ccc(C2CC(=O)Nc3n[nH]cc32)o1 (centres undefined) 0.0773

Also Cc1cc(N2CCN(C(=O)[C@@H]3C[C@H]4C=C[C@@H]3C4)CC2)nc2ccccc12 ? -5.71

Same thing, different compound: CN1C(=O)C2(CC(=O)Nc3[nH]ncc32)c2ccc(F)cc21 (centres undefined) -1.52

// query: CN(CC(=O)NC1CCOCC1)C1CCCN(c2cccnn2)C1 (centres undefined) -8.97

COc1cccc(Cn2cc(C3=CCN(CC(=O)N(C)C)CC3)cn2)c1 , same question. -13.1

====

Experiment: Toxicity liver stage against HepG2, at 10uM
Type: cell-based
Design: test concentration 10 uM, cell line HepG2-A16-CD81EGFP
Details: human, HepG2-A16-CD81EGFP cells; read-out: INHIBITION
Measure Name: cytotoxicity at 10 µM (%)
Provide the reading as a plain figure in %.

Which cytotoxicity at 10 µM value belongs to COc1ccc(F)c(CN2CCCC(c3cc(O)nc(C)n3)C2)c1 (stereo unspecified) ? 7.3

Similarly, Cc1ncncc1C(=O)N1CCCC(c2[nH]ncc2S(C)(=O)=O)C1 (stereo unspecified) ? -4.41

// query: CN(Cc1noc(C2CC2)n1)C1CCN(Cc2ccccc2C#N)C1 (stereo unspecified) -7.8

Subsequent entry: Cc1noc([C@]23COC[C@H]2CN(C(=O)COC2CCCC2)C3)n1 -104

What about this compound? Cc1nc(CN2CCc3ncnc(C4CCOC4)c3CC2)cs1 (stereo unspecified) 3.05

Next: NC(=O)CN(CC1CCOC1)C1CC1 (stereo unspecified) -14

Check CCCNC(=O)COc1cccc(-c2nc(C(C)C)no2)c1 too. -77.9

Entry Cc1cccc(C(=O)N2CCCC[C@]3(C)NC(=O)CCC[C@H]23)n1 please -21.3

Note, next up: COCc1ncc(CN2CCN(C)C(=O)C2C)cn1 (stereo unspecified) 1.31

How about this compound: CCN(C)C(=O)c1cnc(-c2noc3cc(N4CCCCC4)ccc23)s1 48.6

Then O=S1(=O)CCC(n2cc(C3=CCN(CCN4CCCCC4)CC3)cn2)C1 (stereo unspecified) ? -8.29

====

Assay: Toxicity liver stage against HepG2, at 10uM
Type: cell-based
Design: test concentration 10 uM, cell line HepG2-A16-CD81EGFP
Details: human, HepG2-A16-CD81EGFP cells; read-out: INHIBITION
What cytotoxicity at 10 µM was measured for each of the following?
The figure you give is taken to be in %; do not add the unit.

Name the reported cytotoxicity at 10 µM value associated with the compound Cc1ccc(C(=O)N2CCOC(c3nc(-c4ncccn4)no3)C2)cc1 (stereo not given) -19.9

Here is the next compound: CC(Cn1ccnc1)NC(=O)N1CCN(Cc2ccncc2)CC1 (stereo not given) -4.1

Request: O=C([C@H]1CCS(=O)(=O)[C@@H]2CN(Cc3ccc(F)cc3)C[C@H]12)N1CCCC1 2.96

Same lookup for CSCCCN1CCc2nc(N(C)C)nc(N3CCC(O)CC3)c2C1 , please. -4.67

Then what about the compound Fc1cccc(CNCC2OCCc3cn(CC4CCOCC4)nc32)c1 (stereo not given) ? -77.1

====

Assay: Toxicity liver stage against HepG2, at 10uM
Assay type: cell-based
Parameters: test concentration 10 uM, cell line HepG2-A16-CD81EGFP
Conditions: human, HepG2-A16-CD81EGFP cells; read-out: INHIBITION
Measure Name: cytotoxicity at 10 µM (%)
Response body: numeric value in %, unit text excluded.

Quick one: cytotoxicity at 10 µM for NC(=O)CN1CCCC(CCCc2ccccn2)(C(N)=O)C1 (configuration not stated) ? -23.5

Repeat for the following compound: CCCC(C)N(C)Cc1nnc(-c2ccc(Br)s2)o1 (configuration not stated) -1.16

Now try CC(C)N(C)Cc1cnc2n1CCN(C(=O)Cc1cccs1)C2C (configuration not stated) . 7.86

Continue with CCc1nc(CN2CCCN(C(=O)CCCOC)CC2)cs1 -14.4

Same question, CCOCCOC(C)C(=O)Nc1ccc2ccn(CC(=O)NC)c2c1 (configuration not stated) this time 2.3

Input C/C(=C\c1ccco1)CN(C)C(C)Cc1cc(C)ccn1 (configuration not stated) 0.277

Same question, COc1cc(C(=O)N(C2CC2)C2CC(=O)NC2=O)ccc1C (configuration not stated) this time -3.58

Proceed to CCc1nc(C)sc1CN1CCc2[nH]nc(-c3ccc(F)c(F)c3)c2C1 5.57

Further, for CC(C)[C@H]1CN(CC2CCC2)C[C@@H]1NC(=O)c1ccc(=O)[nH]c1 ? -7.85

Now consider Cc1nc(C(C)C)sc1C(=O)NS(=O)(=O)c1ccc(C#N)cc1 and answer again. -6.94

Now the compound CCc1nnc(NC(=O)Cc2c(C)nc(C)[nH]c2=O)s1 -14.4

What do we get for COc1ccc(Nc2nc3c(C)nn(C)c3c(=O)n2C)c(C)c1 ? -6.06

And then COc1ccc(-n2ccc(CNCc3ccc(OC)c(O)c3)n2)cc1 , what is it? 0.51

Entry to check: c1cnnc(NCC2CN(CC3CCOCC3)CCO2)c1 (configuration not stated) 9.34

Subsequent entry: COc1ncccc1C(=O)N1CCCC1c1c(C)nn(C)c1Cl (configuration not stated) -9.35

Also need CSc1cc2c(cc1NC(=O)NCc1ccncc1)OCCO2 , thanks. 7.55

Okay, and CCc1ccc(CN2CCN(c3ccc(C(N)=O)cn3)CC2)nc1 ? 4.95

Also check CC(=O)N1CCN(c2cc(-n3cnc(C)c3C)nc(C)n2)CC1 0.727

Okay, and O=C([C@H]1CN(Cc2ccoc2)C[C@H]2OCC[C@@H]12)N1CCCCO1 ? 7.86

Same read-out for Cc1cc(C)c(CNC(=O)NCC(O)c2cccc(F)c2)c(=O)[nH]1 (configuration not stated) ? -4.37

And what about the compound N#CC1CCCN(S(=O)(=O)c2ccc(C(=O)NCC(F)F)cc2)C1 (configuration not stated) ? 6.74

Check O=C(c1ccno1)N1CCOC[C@H](Oc2ccccc2)C1 too. -5.25

Input CC(CCS(C)(=O)=O)NC(=O)NCc1ccc2c(c1)CCC2 (configuration not stated) -143

Now the compound COCc1cccc(NC(=O)NCc2ncc(C)c(OC)c2C)c1 -1.21

Repeat with CN(CCCNC(=O)c1ccc(C#N)cc1)CC(F)(F)F 5.12

How about this compound: Cn1nccc1-c1cc(C2CCN(S(C)(=O)=O)CC2)ccn1 -28.2

Param item: Cc1cnc(N2CCCn3c(nnc3CN(C)C(C)C)C2)nc1 4.42

Can you handle CCS(=O)(=O)c1ccc2oc([C@H]3CCN(Cc4cccnc4)C3)nc2c1 next? 19.7

Query COCc1nc(C(=O)N2CCCC(n3nc(C)nc3C)C2)cs1 (configuration not stated) next -24.1

Follow-up item: Cc1nn(CC(=O)N2CCN(Cc3cn(C)nc3C)CC2)cc1Br -6.28

Next entry: CCOCC(=O)Nc1ccc(-n2ccc(C(N)=O)n2)cc1 -5.27

Similarly, CN(CC(=O)N1CCCC1)C(=O)Cc1csc(-c2ncccn2)n1 ? -9.51

Now the same for Cc1ccc(C(=O)Nc2ccccc2N2CCCC2)n1C 5.55

Moving on to the next compound: CCNC(=O)CCN1CCCC1c1cccc2c1OCCO2 (configuration not stated) -4

Next compound up: c1ccc(COCCN2CCc3[nH]cnc3C2c2ccoc2)cc1 (configuration not stated) 6.62

Moving on to the next compound: COCC(=O)N1CCC2(CCN(Cc3ccc(C)cc3)CC2)CC1 6.68

Likewise for N#Cc1ccc(CN2CCC(CN3CCOCC3)C2)cc1 (configuration not stated) ? -7.01

Cool, now Cc1nc2[nH]cnc(Nc3cc(C)n(C)n3)c-2n1 6.69

Request: Cn1c(=O)oc2cc(S(=O)(=O)N3CCCCC3)c(Cl)cc21 19

Subsequent entry: O=C(c1ccc(COc2ccc(Cl)cc2)o1)N1N=CCC1(O)C(F)(F)F (configuration not stated) 30

Another compound to look at: COCCC(=O)N1CCCC(c2nc(O)cc(-c3ccncc3)n2)C1 (configuration not stated) -24.9

Now the compound O=C(Nc1cc(F)ccc1OCC1CCCO1)c1ccccn1 (configuration not stated) 2.57

Next: CCc1nnc(S(=O)(=O)Cc2cc(Cl)c3c(c2)OCO3)n1C -46.3

Can you handle CCc1nn(C)c(Cl)c1CN1CCCC2(C1)CN(C)C(=O)O2 (configuration not stated) next? 5.44

Then what about the compound Cc1cc(C)n(CC2CCCN2C(=O)c2ccc3c(c2)COC3)n1 (configuration not stated) ? 1.85

Quick one: CC(=O)Nc1ccc(S(=O)(=O)N2CCOC(Cn3ccnc3)C2)cc1 (configuration not stated) 0.166

Next compound up: O=C(c1ccc(-n2cnnc2)cc1Cl)N1CCCC(O)(CO)CC1 (configuration not stated) -3.59
